Readings of viability for the listed molecules
testDescription: MRP1 drug-resistance reversers in H69AR cells – cell-based, doxorubicin co-treatment, pilot screen (AID 601)
particulars: H69AR cells, CellTiter-Glo, 72 h; compound alone cytotoxicity; at 10 µM
experimentalReadout: viability (%)

molecule | reading
CCCn1c(OC)nc2c1c(=O)n(C)c(=O)n2C | 94.4
CC(Oc1ccc2oc(-c3ccccc3)c(C(=O)O)c2c1)C(=O)O (stereo unspecified) | 103
COc1ccccc1NC(=O)N1CCN(c2cccc(C(F)(F)F)c2)CC1 | 95.2
COc1cc(C2c3c(oc4ccccc4c3=O)C(=O)N2c2ccc(C)cn2)ccc1O (stereo unspecified) | 101
CC(=O)N1c2c(cc(Br)cc2S(=O)(=O)NCC2COc3ccccc3O2)CC1C (stereo unspecified) | 81.7
CCSc1nc(O)c(CC)c(=O)n1C(C)CC (stereo unspecified) | 108

###

testDescription: H69AR cell proliferation blockers – human, duplicate replicates, primary screen (AID 580);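 note: 100% = mean luminescence of untreated wells and 0% = no signal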
particulars: H69AR lung tumor cells viability, ATP luminescence, 72 h; at 10 µM; stronger effect = lower value

compound | unitTag | viability
Cc1cccc(C(=O)N2CCN(C(=O)c3cccc(C)c3)C(C)C2)c1 (stereo not given) | % | 90.3
Cc1ccc(S(=O)(=O)Cc2ccc(C(=O)N3CCN(Cc4ccccc4)CC3)o2)cc1 | % | 85.8
CCCC(=O)NCCc1cc2c(C)ccc(C)c2[nH]c1=O | % | 98.8
O=C(c1ccc(=O)[nH]c1)N(Cc1ccco1)C1(C(=O)NC2CCCC2)CCCCC1 | % | 104
CCN(CCCNS(=O)(=O)c1ccc2c(c1)oc(=O)n2C)c1cccc(C)c1 | % | 90.1

###

testDescription: RAM pathway blockade in budding yeast – dse1pr::URA3 reporter, 5-FOA selection, pilot screen (AID 869);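 note: 0% = DMSO wells with no growth and 100% = 10 µM 1-NA-PP1 with full growth; RAM network block rescues cells from 5-FOA so hits raise OD615 growth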
particulars: S. cerevisiae dse1pr::URA3 5-FOA growth, OD615, 2 d; at 10 µM; stronger effect = higher value; strain carries analog-sensitive mutant Cbk1 kinase
experimentalReadout: inhibition (%)

compound | experimentalReadout | reading
CCOC(=O)c1csc(NC(=O)C2CCCCC2)n1 | inhibition | 0.89
CCOC(=O)c1cc2c(=O)n3ccccc3nc2n(Cc2ccccc2)c1=N | inhibition | 2.4
N#Cc1c(-c2ccco2)c2c([nH]c1=S)CCCC2 | inhibition | 1.57
CCCCCn1c(CCNC(=O)CCC)nc2ccccc21 | inhibition | 1.89
CCCNC(=O)CS(=O)Cc1nc(-c2cccc(OC)c2)oc1C (stereo unspecified) | inhibition | 1.2
CC1Cc2nc(SCC(=O)N3CCCc4ccccc43)n(C)c(=O)c2S1 (stereo unspecified) | inhibition | 3.17
CCOC(=O)N1CCC(NC(=O)c2cc(C(=O)NC3CCCC3)ccc2CO)CC1 | inhibition | 1.87
Cc1cccc(N2CCN(C(=O)Cn3nc(Cc4ccncc4)c4ccccc4c3=O)CC2)c1C | inhibition | 0.445
COc1ccc(OCCOC(=O)Nc2ccccc2)cc1 | inhibition | 1.64
CCOC(=O)/C(C#N)=C1/C=Nc2ccccc2N1 | inhibition | -0.42
CCOC(=O)N1CCC(N2CC34C=CC(O3)C(C(=O)Nc3ccc(F)cc3)C4C2=O)CC1 (stereo unspecified) | inhibition | 0.885

###

targetEntity: Receptor tyrosine-protein kinase erbB-2 (Homo sapiens) (UniProt P04626)
Sequence (P04626 whole entry, looked up): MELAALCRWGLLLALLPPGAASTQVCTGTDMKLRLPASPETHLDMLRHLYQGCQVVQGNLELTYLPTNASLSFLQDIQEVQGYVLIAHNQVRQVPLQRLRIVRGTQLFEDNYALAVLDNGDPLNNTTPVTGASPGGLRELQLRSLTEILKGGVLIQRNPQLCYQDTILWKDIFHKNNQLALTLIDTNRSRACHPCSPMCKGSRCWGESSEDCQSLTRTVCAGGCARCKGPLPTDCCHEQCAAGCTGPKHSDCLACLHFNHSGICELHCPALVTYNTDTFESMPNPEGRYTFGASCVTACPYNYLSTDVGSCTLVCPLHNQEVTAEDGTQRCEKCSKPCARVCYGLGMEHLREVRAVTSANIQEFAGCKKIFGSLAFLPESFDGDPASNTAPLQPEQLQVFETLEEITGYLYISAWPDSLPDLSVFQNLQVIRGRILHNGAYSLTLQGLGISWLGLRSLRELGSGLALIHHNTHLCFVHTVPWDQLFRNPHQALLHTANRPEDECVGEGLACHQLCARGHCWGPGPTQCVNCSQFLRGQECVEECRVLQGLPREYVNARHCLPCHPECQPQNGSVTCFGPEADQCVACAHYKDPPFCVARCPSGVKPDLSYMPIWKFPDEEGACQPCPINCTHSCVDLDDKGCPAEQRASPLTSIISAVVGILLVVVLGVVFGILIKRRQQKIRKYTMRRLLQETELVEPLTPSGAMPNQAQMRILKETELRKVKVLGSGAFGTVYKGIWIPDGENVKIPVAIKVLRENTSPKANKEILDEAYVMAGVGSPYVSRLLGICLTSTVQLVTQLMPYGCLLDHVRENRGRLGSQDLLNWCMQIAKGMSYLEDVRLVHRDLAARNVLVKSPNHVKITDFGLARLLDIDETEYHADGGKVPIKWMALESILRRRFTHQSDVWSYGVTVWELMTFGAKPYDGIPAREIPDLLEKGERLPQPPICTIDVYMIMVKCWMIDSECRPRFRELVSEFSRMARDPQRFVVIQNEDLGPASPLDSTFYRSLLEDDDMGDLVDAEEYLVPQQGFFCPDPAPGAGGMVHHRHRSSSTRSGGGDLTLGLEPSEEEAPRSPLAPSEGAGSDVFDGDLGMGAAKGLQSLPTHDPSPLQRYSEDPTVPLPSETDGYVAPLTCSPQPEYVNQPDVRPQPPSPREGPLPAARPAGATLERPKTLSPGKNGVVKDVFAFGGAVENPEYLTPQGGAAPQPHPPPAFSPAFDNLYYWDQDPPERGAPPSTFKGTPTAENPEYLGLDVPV
testDescription: Her2 expression decrease, cell viability multiplex – SKBR3 breast tumor cells, AlphaScreen, ATP viability, primary screen (AID 461);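 note: lower value means less Her2 protein in the cells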
particulars: 18-24 h, at 10 µM, stronger effect = lower value
Param label: returns y when Her2 level < 90%, returns n otherwise, including exact equality.

compound | targetEntity | assignedClass
O=C(OCn1nnc2ccccc2c1=O)c1cc2ccccc2o1 | Receptor tyrosine-protein kinase erbB-2 (Homo sapiens) (UniProt P04626) | n
CC(=O)c1cccc(NC(=O)CCNS(=O)(=O)c2cccc3nsnc23)c1 | Receptor tyrosine-protein kinase erbB-2 (Homo sapiens) (UniProt P04626) | y
Cc1[nH]c2ccccc2c(=O)c1CN1CCCCC1 | Receptor tyrosine-protein kinase erbB-2 (Homo sapiens) (UniProt P04626) | n
CCN(C1CCCCC1)S(=O)(=O)c1ccc(S(=O)(=O)N2CCN(CCC#N)CC2)cc1 | Receptor tyrosine-protein kinase erbB-2 (Homo sapiens) (UniProt P04626) | n
COc1nnc(-c2ccc(C)c(S(=O)(=O)NCCO)c2)c2ccccc12 | Receptor tyrosine-protein kinase erbB-2 (Homo sapiens) (UniProt P04626) | n
Cc1cccc(CN2CCC(CNC(=O)C3CCCN(S(=O)(=O)c4cnc[nH]4)C3)CC2)c1 (stereo not given) | Receptor tyrosine-protein kinase erbB-2 (Homo sapiens) (UniProt P04626) | n
COc1ccc(C(=O)CN2C3=NCCCN3c3ccccc32)cc1OC | Receptor tyrosine-protein kinase erbB-2 (Homo sapiens) (UniProt P04626) | n
CC1(C)CC(=O)C2=C(C1)NC(=O)CC2c1ccc(N(CCC#N)CCC#N)cc1 (stereo not given) | Receptor tyrosine-protein kinase erbB-2 (Homo sapiens) (UniProt P04626) | n
Nc1[nH]nc2nc(N3CCCC3)nc(-c3ccccc3)c12 | Receptor tyrosine-protein kinase erbB-2 (Homo sapiens) (UniProt P04626) | n
COc1ccc(OC)c(C2C(C(=O)Nc3ccc(F)cc3)=C(C)Nc3nc(CCCO)nn32)c1 (stereo not given) | Receptor tyrosine-protein kinase erbB-2 (Homo sapiens) (UniProt P04626) | n
COc1cccc(C2C3=C(N=C4SCC(=O)N42)c2ccccc2CC3)c1OC (stereo not given) | Receptor tyrosine-protein kinase erbB-2 (Homo sapiens) (UniProt P04626) | n
CCOc1ccc(NC2c3ccccc3C(=O)N2Cc2ccco2)cc1 (stereo not given) | Receptor tyrosine-protein kinase erbB-2 (Homo sapiens) (UniProt P04626) | n
CCc1cccc(NC(=O)Cn2cc3c(n2)CCCC3)c1 | Receptor tyrosine-protein kinase erbB-2 (Homo sapiens) (UniProt P04626) | n
Cc1cc(C)n(-c2ccc(N3CCOCC3)nn2)n1 | Receptor tyrosine-protein kinase erbB-2 (Homo sapiens) (UniProt P04626) | n
Oc1c(C(c2ccccc2)N2CCc3ccccc3C2)sc2ncnn12 (stereo not given) | Receptor tyrosine-protein kinase erbB-2 (Homo sapiens) (UniProt P04626) | y
O=C(NCCN1CCOCC1)c1ccc2c(c1)N(Cc1ccccc1F)C(=O)CS2 | Receptor tyrosine-protein kinase erbB-2 (Homo sapiens) (UniProt P04626) | n
CN(C)CCN1C(=O)C(O)=C(C(=O)c2cc3ccccc3o2)C1c1ccc(N(C)C)cc1 (stereo not given) | Receptor tyrosine-protein kinase erbB-2 (Homo sapiens) (UniProt P04626) | n
CC1(C)CC(=O)CC(C2(O)C(=O)N(Cc3ccccc3)c3ccccc32)O1 (stereo not given) | Receptor tyrosine-protein kinase erbB-2 (Homo sapiens) (UniProt P04626) | y
Cc1cccc(-n2ncc3c(NCCCn4ccnc4)ncnc32)c1 | Receptor tyrosine-protein kinase erbB-2 (Homo sapiens) (UniProt P04626) | n
O=C(NCCN1CCCCCC1)c1ccc(CS(=O)(=O)c2ccc(Br)cc2)o1 | Receptor tyrosine-protein kinase erbB-2 (Homo sapiens) (UniProt P04626) | n
Cc1cc(C)c(NC(=O)Cn2cc3c(n2)CCCC3)c(C)c1 | Receptor tyrosine-protein kinase erbB-2 (Homo sapiens) (UniProt P04626) | n
O=C(CS(=O)(=O)Cc1ccccc1)Nc1nc2ccccc2s1 | Receptor tyrosine-protein kinase erbB-2 (Homo sapiens) (UniProt P04626) | y
CSCCC(N=CC1=C(O)CC(C)(C)CC1=O)C(=O)O (stereo not given) | Receptor tyrosine-protein kinase erbB-2 (Homo sapiens) (UniProt P04626) | n
O=C(Cn1nc(Cc2ccncc2)c2ccccc2c1=O)N1CCN(C(=O)c2ccco2)CC1 | Receptor tyrosine-protein kinase erbB-2 (Homo sapiens) (UniProt P04626) | n
CCOc1ccc(-c2nnc(N(CC)C(=O)C3CCC3)s2)cc1 | Receptor tyrosine-protein kinase erbB-2 (Homo sapiens) (UniProt P04626) | y
Cc1ccc(C2c3c(oc4ccccc4c3=O)C(=O)N2c2nnc(C(C)C)s2)o1 (stereo not given) | Receptor tyrosine-protein kinase erbB-2 (Homo sapiens) (UniProt P04626) | y
O=C(O)C1CC(=O)N(CCOc2ccccc2)C1 (stereo not given) | Receptor tyrosine-protein kinase erbB-2 (Homo sapiens) (UniProt P04626) | n
CCOC(=O)c1ccc(N2Cc3cc(C)c(C)cc3C2)cc1O | Receptor tyrosine-protein kinase erbB-2 (Homo sapiens) (UniProt P04626) | n
CC1CCCN(S(=O)(=O)c2coc(C(N)=O)c2)C1 (stereo not given) | Receptor tyrosine-protein kinase erbB-2 (Homo sapiens) (UniProt P04626) | n
CC1=C(C(=O)OC(C)C)C(c2cccc(F)c2)n2ncnc2N1 (stereo not given) | Receptor tyrosine-protein kinase erbB-2 (Homo sapiens) (UniProt P04626) | n
CC1CCCCC1NC(=O)Cn1ncc2ccccc21 (stereo not given) | Receptor tyrosine-protein kinase erbB-2 (Homo sapiens) (UniProt P04626) | n
CC1CCCCN1S(=O)(=O)c1ccc(NC(=O)c2cccs2)cc1 (stereo not given) | Receptor tyrosine-protein kinase erbB-2 (Homo sapiens) (UniProt P04626) | y
COc1ccc(NS(=O)(=O)c2ccc(NC(C)=O)cc2)cc1OC | Receptor tyrosine-protein kinase erbB-2 (Homo sapiens) (UniProt P04626) | n
CCC(C)OC(=O)C1=C(C)NC2=C(C(=O)C(C(=O)OC)C(C)C2)C1c1ccc(N(C)C)cc1 (stereo not given) | Receptor tyrosine-protein kinase erbB-2 (Homo sapiens) (UniProt P04626) | n
